Quick reference for Kd among some binders
Target: T1, HlgB
T1 chain: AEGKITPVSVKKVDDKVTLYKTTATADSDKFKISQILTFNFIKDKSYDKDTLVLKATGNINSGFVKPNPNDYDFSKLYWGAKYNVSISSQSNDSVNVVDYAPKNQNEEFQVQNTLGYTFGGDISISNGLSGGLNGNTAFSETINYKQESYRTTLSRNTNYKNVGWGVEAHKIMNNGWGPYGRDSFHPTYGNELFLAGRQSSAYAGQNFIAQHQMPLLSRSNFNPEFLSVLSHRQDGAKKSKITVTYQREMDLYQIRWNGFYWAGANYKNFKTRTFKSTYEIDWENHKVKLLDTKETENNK
Test: MSD solution equilibrium; Fab
Observed property: Kd (nM)

- Binder: "AB-28-12 (antibody, V domains shown) VH: QVQLQESGPGLVKPSETLSLTCAVSGYSISSGMGWDWIRQPPGKGREWIGSIDQRGSTYYNPSLEGRVTISVDTSKNQFSLKLSSVTAADTAVYYCARDAGHGVDMDVWGKGTTVTVSS VL: DIQMTQSPSSVSASVGDRVTITCRASQGISRWLAWYQQKPGKAPKLLIYAASSLQSGVPSRFSGSGSGTDFTLTISSLQPEDFATYYCQQGYVFPLTFGGGTKVEIK"
  Observed property: "Kd"
  Measurement qualifier: "<"
  Measured result: 0.002
- Binder: "AB-28-3 (antibody, V domains shown) VH: QVQLQESGPGLVKPSETLSLTCAVSGYSISSGMGWGWIRQPPGKGLEWIGSVDQRGSTYYNPSLKSRVTISVDTSKNQFSLKLSSVTAADTAVYYCARDAGHGADMDVWGKGTTVTVSS VL: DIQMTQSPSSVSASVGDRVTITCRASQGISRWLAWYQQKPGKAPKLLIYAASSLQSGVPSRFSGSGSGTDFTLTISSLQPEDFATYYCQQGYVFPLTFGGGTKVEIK"
  Observed property: "Kd"
  Measurement qualifier: "="
  Measured result: 0.018

Reference for the values: patent US20180179267A1
